Test system: HCV replication
assay.explanation: Replicon Assay (Huh-lucubineo-ET cells, luciferase readout)
Assay type: cell-based
test.parameters: Hepatitis C virus; ET (Huh-lucubineo-ET) HCV replicon cell line; luciferase activity 48-72 hours after compound addition; 6 dilutions
The label y is reserved for EC50 strictly under 60 nM; n covers values equal to or above it.

1) CC(F)(F)COc1ccc(-c2ccc(Cn3cc4nc(-c5cccc(F)c5F)nc-4cn3)nn2)c(C(F)(F)F)c1 ... n

Is EC50 strictly under 60 nM for the entry CCCOc1ccc(-c2ccc(Cn3cc4nc(-c5cccc(F)c5F)nc-4cn3)nn2)c(C(F)(F)F)c1 ?
y

Is EC50 strictly under 60 nM for the entry CCOc1ccc(-c2ccc(Cn3cc4nc(-c5ccccc5F)nc-4cn3)nn2)c(C(F)(F)F)c1 ?
y

Is EC50 strictly under 60 nM for the entry COc1ccc(-c2ccc(Cn3cc4nc(-c5cccc(F)c5F)nc-4cn3)c(N)c2)c(C(F)(F)F)c1 ?
y

* * *

For each entry below, report its pEC50 value.
Tested on: HCV replication
assay.explanation: Replicon Assay (Huh-lucubineo-ET cells, luciferase readout)
Format: cell-based
test.parameters: Hepatitis C virus; ET (Huh-lucubineo-ET) HCV replicon cell line; luciferase activity 48-72 hours after compound addition; 6 dilutions
Numbers only, as −log10 of the molar value.

The examples below pair each entry with its known result.
1) Fc1cc(-c2ccc(C(F)(F)F)cc2C(F)(F)F)ccc1Cn1cc2nc(-c3cccc(F)c3F)nc-2cn1 [Compound 257] ... 7.35
2) O=[N+]([O-])c1ccc(-c2ccc(Cn3cc4nc(-c5cccc(F)c5F)nc-4cn3)cn2)c(C(F)(F)F)c1 [Compound 285] ... 6.55
3) Fc1cccc(-c2nc3cnn(Cc4ccc(-c5ccc(C(F)(F)F)cc5C(F)(F)F)nc4)cc-3n2)c1F [Compound 130] ... 8.10
4) COc1ccc(-c2ccc(Cn3cc4nc(-c5cccc(F)c5F)nc-4cn3)nc2O)c(C(F)(F)F)c1 [Compound 359] ... 5.65

Hi! Can you tell me pEC50 for each of these molecules?
1. N#Cc1cc(C(F)(F)F)ccc1-c1ccc(Cn2cc3nc(-c4cccc(F)c4F)nc-3cn2)cn1 [Compound 340]
2. Fc1cccc(-c2nc3cnn(Cc4cccc(-c5ccncc5)c4)cc-3n2)c1F [Compound 301]

[7.02, 4.46]

* * *

Test system: HCV replication
assay.explanation: Replicon Assay (Huh-lucubineo-ET cells, luciferase readout)
Assay type: cell-based
test.parameters: Hepatitis C virus; ET (Huh-lucubineo-ET) HCV replicon cell line; luciferase activity 48-72 hours after compound addition; 6 dilutions
pEC50: −log10 of the molar value.
The label depends only on pEC50: Fulfilled if it is at least 7, Not fulfilled if it is smaller.

1) Fc1cccc(-c2nc3cnn(Cc4ccc(-c5ccc(OCC6CCOC6)cc5C(F)(F)F)nn4)cc-3n2)c1F (stereo not shown) ... Not fulfilled
2) COc1ccc(-c2ccc(Cn3cc4nc(-c5cccc(F)c5F)nc-4cn3)cn2)c(C(F)(F)F)c1 ... Fulfilled
3) Fc1cccc(-c2nc3cnn(Cc4ccc5ncccc5c4)cc-3n2)c1F ... Not fulfilled
4) Fc1cccc(-c2nc3cnn(CCCc4ccc(C(F)(F)F)cc4C(F)(F)F)cc-3n2)c1F ... Not fulfilled
5) CCCOc1ccc(-c2ccc(Cn3cc4nc(-c5cccc(F)c5F)nc-4cn3)cn2)c(C(F)(F)F)c1 ... Fulfilled

Please tell me: is the compound CN(C)Cc1ccc(-c2ccc(Cn3cc4nc(-c5cccc(F)c5F)nc-4cn3)nn2)cc1 at or over 7 in terms of pEC50?
Not fulfilled

Please tell me: is the compound CCCCOc1ccc(-c2ccc(Cn3cc4nc(-c5cccc(F)c5F)nc-4cn3)nn2)cc1 at or over 7 in terms of pEC50?
Not fulfilled

Please tell me: is the compound Fc1cccc(-c2nc3cnn(CCCCc4ccc(C(F)(F)F)cc4C(F)(F)F)cc-3n2)c1F at or over 7 in terms of pEC50?
Not fulfilled

Please tell me: is the compound COc1ccc(-c2ccc(Cn3cc4nc(-c5cccc(F)c5F)nc-4cn3)nn2)c(OC)c1 at or over 7 in terms of pEC50?
Not fulfilled

Please tell me: is the compound CCc1ccc(-c2ccc(Cn3cc4nc(-c5cccc(F)c5F)nc-4cn3)nn2)cc1 at or over 7 in terms of pEC50?
Not fulfilled

Please tell me: is the compound Cc1ccc(-c2ccc(Cn3cc4nc(-c5cccc(F)c5F)nc-4cn3)c(N)n2)c(C(F)(F)F)c1 at or over 7 in terms of pEC50?
Fulfilled

Please tell me: is the compound CCCOc1ccc(-c2ncc(Cn3cc4nc(-c5ccccc5F)nc-4cn3)cn2)c(C(F)(F)F)c1 at or over 7 in terms of pEC50?
Fulfilled

Please tell me: is the compound CNc1cccc(-c2nc3cnn(Cc4ccc(-c5ccc(C(F)(F)F)cc5C(F)(F)F)nc4)cc-3n2)c1F at or over 7 in terms of pEC50?
Not fulfilled

Please tell me: is the compound CC(C)(C)OCc1ccc(-c2ccc(Cn3cc4nc(-c5cccc(F)c5F)nc-4cn3)nn2)cc1 at or over 7 in terms of pEC50?
Not fulfilled

Please tell me: is the compound Fc1cccc(-c2nc3cnn(Cc4ccc(-c5ccccn5)cc4)cc-3n2)c1F at or over 7 in terms of pEC50?
Not fulfilled
